Origin of the recorded values: patent US6355799B1

- Test system: upland rice (Oryza sp., var. Tebonnet, RICE)
- Test Name: Post-emerge test, crop safety
- Assay type: in vivo
- Condition Notes: post-emerge, 63 g ai/ha, 14 days after application, rating scale 0-100
Endpoint: RICE phytotoxicity rating (crop damage)
Answers are plain numbers.

Compound	RICE phytotoxicity rating (crop damage)
COc1c(Cl)cc(F)c(-n2c(=O)cc(C(F)(F)F)n(C)c2=O)c1NC(=O)COc1ccc(Cl)cc1	20
Cn1c(C(F)(F)F)cc(=O)n(-c2ccc(C#N)cc2NC(=O)c2ccc3ccccc3c2)c1=O	50
COc1c(Cl)cc(F)c(-n2c(=O)cc(C(F)(F)F)n(N)c2=O)c1NC(=O)C=Cc1ccccc1	20

Each of the following entries comes with a recorded value; kindly state RICE phytotoxicity rating (crop damage) for each.
1. Cn1c(C(F)(F)F)cc(=O)n(-c2c(F)cc(Cl)cc2NC2CC2)c1=O
2. COc1cc2ccccc2cc1C(=O)Nc1c(OC)c(Cl)cc(F)c1-n1c(=O)cc(C(F)(F)F)n(C)c1=O
3. CCCSCC(=O)Nc1c(OC)c(Cl)cc(F)c1-n1c(=O)cc(C(F)(F)F)n(C)c1=O
4. Cn1c(C(F)(F)F)cc(=O)n(-c2c(F)cc(OC(F)F)cc2NC(=O)c2ccc3ccccc3c2)c1=O
5. COc1c(Cl)cc(F)c(-n2c(=O)cc(C(F)(F)F)n(C)c2=O)c1NC(=O)CCc1ccccc1C
6. COc1c(Cl)cc(F)c(-n2c(=O)cc(C(F)(F)F)n(C)c2=O)c1NC(=O)CCc1cc(C)ccc1C [2-132]
7. COc1c(Cl)cc(F)c(-n2c(=O)cc(C(F)(F)F)n(C)c2=O)c1NC(=O)CSC

Result string:
[50, 40, 20, 0, 35, 50, 10]

====

- System: upland rice (Oryza sp., var. Tebonnet, RICE)
- Test Name: Pre-emerge test, crop safety
- Type: in vivo
- Condition Notes: 63 g ai/ha; rated 14 days after application; 0 = no damage, 100 = complete death
I'd appreciate it if you could supply Pre-emerge phytotoxicity rating (0-100), crop damage, RICE values for the items below.
Numbers only.

Molecule	Experimental Result
COc1c(Cl)cc(F)c(-n2c(=O)cc(C(F)(F)F)n(C)c2=O)c1NC(=O)c1ccc(C(F)(F)F)cc1 [2-33]	70

Each of the following entries comes with a recorded value; kindly state Pre-emerge phytotoxicity rating (0-100), crop damage, RICE for each.
1. CCOc1ccc(C(=O)Nc2c(OC)c(Cl)cc(F)c2-n2c(=O)cc(C(F)(F)F)n(C)c2=O)cc1 [2-64]
2. COc1c(Cl)cc(F)c(-n2c(=O)cc(C(F)(F)F)n(C)c2=O)c1NC(=O)c1c(F)cccc1F [2-47]
3. COc1c(Cl)cc(F)c(-n2c(=O)cc(C(F)(F)F)n(C)c2=O)c1NC(=O)c1ccc(I)cc1 [2-66]
4. COc1c(Cl)cc(F)c(-n2c(=O)cc(C(F)(F)F)n(C)c2=O)c1NC(=O)COc1ccccc1 [2-119]

Result string:
10
70
10
70

====

- System: redroot pigweed (Amaranthus retroflexus, AMARE)
- Test Name: Pre-emerge test, greenhouse herbicide activity screening
- Assay type: in vivo
- Condition Notes: pre-emerge, 63 g ai/ha, 14 days after application, scale 0-100
Label class 1 when phytotoxicity rating AMARE is strictly below 70; at or above that, label class 0.

Molecule	Label Value
COc1c(Cl)cc(F)c(-n2c(=O)cc(C(F)(F)F)n(C)c2=O)c1NC(=O)COc1ccc(Cl)cc1 [2-135]	class 0
COc1c(Cl)cc(F)c(-n2c(=O)cc(C(F)(F)F)n(C)c2=O)c1NC(=O)c1c(C)cccc1C [2-124]	class 1
COc1c(Cl)cc(F)c(-n2c(=O)cc(C(F)(F)F)n(C)c2=O)c1NC(=O)CSC(C)C [2-173]	class 1
COc1ccccc1C=CC(=O)Nc1c(OC)c(Cl)cc(F)c1-n1c(=O)cc(C(F)(F)F)n(C)c1=O [2-127]	class 0
Cn1c(C(F)(F)F)cc(=O)n(-c2ccccc2NC(=O)c2ccc3ccccc3c2)c1=O [2-142]	class 1

With those in mind, consider the next molecule.
Query string: Is the reported phytotoxicity rating AMARE for COc1c(Cl)cc(F)c(-n2c(=O)cc(C(F)(F)F)n(C)c2=O)c1NC(=O)CCc1cc(C)ccc1C [2-130] strictly below 70?
Result string: class 1
